- system_tested: human glucagon receptor (human, UniProt P47871 26-477)
- protocol_summary: cell-based or functional assay
Non-standard residues stand in square brackets, D forms with d. Groups on a side chain read outwards from the residue. Primed or numbered codes have the meaning given here. No end group written: not given here. *: point of attachment. C18 diacid = O=C(O)CCCCCCCCCCCCCCCCC(=O)*; Palmitoyl = CCCCCCCCCCCCCCCC(=O)*; PEG2′ = not defined here; Aib = CC(C)(N)C(=O)O
experimental_endpoint: GCGR (EC50, nM), CRE-luciferase in HEK-293 cells

>  <binder>
H[dS]QGTFTSDYSK([PEG2′-PEG2′-Palmitoyl])KLD[Aib]RRAQDFVQWLMNTGGPSSGAPPPS-NH2 [Compound 15]

>  <assay_value>
0.6 nM

$$$$
>  <binder>
H[dS]QGTFTSDYSK([PEG2′-PEG2′-Glu-C18 diacid])KLD[Aib]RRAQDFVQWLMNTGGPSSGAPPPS-NH2 [Compound 18]

>  <assay_value>
0.18 nM

$$$$
>  <binder>
H[dS]QGTFTSDYSKYLDK([PEG2′-PEG2′-Glu-C18 diacid])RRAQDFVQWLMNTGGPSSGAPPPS-NH2 [Compound 11]

>  <assay_value>
0.18 nM

$$$$
>  <binder>
H[dS]QGTFTSDK([PEG2′-PEG2′-Glu-C18 diacid])SKYLD[Aib]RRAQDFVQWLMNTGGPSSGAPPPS-NH2 [Compound 8]

>  <assay_value>
0.18 nM

$$$$
>  <binder>
H[dS]QGTFTSDK([PEG2′-PEG2′-Palmitoyl])SKYLD[Aib]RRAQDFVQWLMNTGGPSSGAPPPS-NH2 [Compound 5]

>  <assay_value>
0.43 nM

$$$$
>  <binder>
H[Aib]QGTFTSDK([PEG2′-PEG2′-Glu-Palmitoyl])SKYLD[Aib]RRAQDFVQWLLDGGPSSGAPPPS-NH2 [Compound 21]

>  <assay_value>
0.66 nM

$$$$
>  <binder>
H[dS]QGTFTSDYSKYLDEKAAK([PEG2′-PEG2′-Glu-C18 diacid])EFIEWLLRA-NH2 [Compound 2]

>  <assay_value>
2.8 nM

$$$$
>  <binder>
H[dS]QGTFTSDYSKYLDEKAAK([PEG2′-PEG2′-Palmitoyl])EFIEWLLNGGPSSGAPPPS-NH2 [Compound 23]

>  <assay_value>
0.43 nM

$$$$
>  <binder>
H[dS]QGTFTSDYSK([PEG2′-PEG2′-C18 diacid])KLD[Aib]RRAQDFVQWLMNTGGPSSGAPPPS-NH2 [Compound 16]

>  <assay_value>
0.2 nM

$$$$
>  <binder>
H[dS]QGTFTSDYSKYLD[Aib]K([PEG2′-PEG2′-C18 diacid])RAQDFVQWLMNTGGPSSGAPPPS-NH2 [Compound 12]

>  <assay_value>
0.15 nM

$$$$

Data origin, for the record: patent US20170183383A1
